target: GOPC, Q9HD26; experiment: holdup assay; design: key: below the threshold = too weak to quantify, mostly under pKd 3.1 to 4; settings: plain residues with an end cap or a label only (N-terminal biotin on a linker: ado-ado)
Label criterion not met if pKd falls below 4; label criterion met in every other case.

{"binder": "EPAKETTTNV [SLC2A3, P11169]", "qualitative.label": "criterion not met"}
{"binder": "TFSRRPKTRV [CD226, Q15762]", "qualitative.label": "criterion met"}
{"binder": "IKLETKKTKL [SLC15A2, Q16348]", "qualitative.label": "criterion met"}
{"binder": "TKDKVQETQI [LRRC4, Q9HBW1]", "qualitative.label": "criterion met"}
{"binder": "QLKSGRDSTV [TMEM178A, Q8NBL3]", "qualitative.label": "criterion not met"}
{"binder": "GTMFLRETSL [GUCY1A2, P33402]", "qualitative.label": "criterion met"}
{"binder": "LLQEEWETVM [PTH1R, Q03431]", "qualitative.label": "criterion not met"}
